All figures here come from the NIST ThermoML archive (doi:10.1021/je900660x).

CONDITION LABEL: 303.15 K; 101.33 kPa; Liquid; Vibrating tube method
OUTCOME MEASURE: mass density (kg/m3)
Reply with just the number (in kg/m3).

Check out these entries, answers already filled in.
>>> numeric_readout("CCCC[P+](CCCC)(CCCC)CCCC.N[C@@H](CO)C(=O)[O-] [tetrabutylphosphonium L-serinate]")
989.2
>>> numeric_readout("CCCC[P+](CCCC)(CCCC)CCCC.NCCCC[C@H](N)C(=O)[O-] [tetrabutylphosphonium L-lysinate]")
964.4

Now let's try a different one.
Query :: Quick one: mass density of CCCC[N+](C)(CCCC)CCCC.N[C@@H](CO)C(=O)[O-] [N,N-dibutyl-N-methylbutanaminium L-serinate] ?
Result :: 1012.6
